Below are IC50 measurements against Tyrosine-protein kinase JAK2 (Homo sapiens, UniProt O60674) drawn from the literature.

Example cases with answers are listed next.
COc1cncc(C(CC#N)n2cc(-c3nc(-c4cnn(C)c4)cc4nccn34)cn2)c1 (stereo not shown)    0.01 to 0.1 µM
NC(=O)c1cc(-c2cccc(Cl)c2)cc2c1[nH]c1ccc(C(=O)N3CCOC(CO)C3)cc12 (stereo not shown)    0.001 µM

// input: 3 compounds below; output: IC50 for each
1. CN(C)C(=O)c1ccc(Nc2nccc(-c3cnn(C4(CC#N)CCN(S(=O)(=O)C5CC5)CC4)c3)n2)cc1
2. FC(F)(F)CCNCc1n[nH]c2c1CN(c1ncnc3[nH]ccc13)CC2
3. CS(=O)(=O)c1ccc(Nc2ncnc(-c3ccc(OC4CCOCC4)c(C#N)c3)n2)cc1

1: < 0.1 µM; 2: 0.1 to 0.5 µM; 3: > 1 µM
